biological target: Alexa 488-labeled human cytochrome b5 T70C (singly labelled at Cys-70, this paper) (human) (UniProt P00167); assay: fluorescence polarisation; P450 17A1 protein or P450 17A1 peptide added to Alexa 488-labeled b5 variant (10 nM) in 1 mM potassium phosphate buffer, pH 7.4, 384-well plate, 50 μl; anisotropy fitted with a quadratic equation
pKd: −log10 of the molar value.

Binder: RNRLLLLEATIR [P450 17A1 peptide (putative b5 binding site of P450 17A1)]
pKd: 3.95
